# ASSAY_PROCEDURE: Metabolic stability assessed as half life in rat liver microsomes at 5 uM
# Format: ADME, Microsome
MEASURED_PROPERTY: half-life at 5 µM (min)
Please give a number only; it is taken to be in min.

Reported half-life at 5 µM for N#Cc1ccc([C@H]2CCCC[C@H]2O)cc1C(F)(F)F was 4

###

# ASSAY_PROCEDURE: Metabolic stability assessed as intrinsic clearance per mg of protein in rat liver microsomes at 5 uM
# Type: ADME, Microsome
MEASURED_PROPERTY: microsomal CLint at 5 µM (µL/min/mg)
# output: bare number, implied unit µL/min/mg

Looking up N#Cc1ccc([C@H]2CCCC[C@H]2O)cc1C(F)(F)F , I see its microsomal CLint at 5 µM listed as 350
